- Test system: Epidermal growth factor receptor (Homo sapiens), P00533 [L858R,T790M]
- Sequence (P00533 whole entry T790M/L858R, looked up): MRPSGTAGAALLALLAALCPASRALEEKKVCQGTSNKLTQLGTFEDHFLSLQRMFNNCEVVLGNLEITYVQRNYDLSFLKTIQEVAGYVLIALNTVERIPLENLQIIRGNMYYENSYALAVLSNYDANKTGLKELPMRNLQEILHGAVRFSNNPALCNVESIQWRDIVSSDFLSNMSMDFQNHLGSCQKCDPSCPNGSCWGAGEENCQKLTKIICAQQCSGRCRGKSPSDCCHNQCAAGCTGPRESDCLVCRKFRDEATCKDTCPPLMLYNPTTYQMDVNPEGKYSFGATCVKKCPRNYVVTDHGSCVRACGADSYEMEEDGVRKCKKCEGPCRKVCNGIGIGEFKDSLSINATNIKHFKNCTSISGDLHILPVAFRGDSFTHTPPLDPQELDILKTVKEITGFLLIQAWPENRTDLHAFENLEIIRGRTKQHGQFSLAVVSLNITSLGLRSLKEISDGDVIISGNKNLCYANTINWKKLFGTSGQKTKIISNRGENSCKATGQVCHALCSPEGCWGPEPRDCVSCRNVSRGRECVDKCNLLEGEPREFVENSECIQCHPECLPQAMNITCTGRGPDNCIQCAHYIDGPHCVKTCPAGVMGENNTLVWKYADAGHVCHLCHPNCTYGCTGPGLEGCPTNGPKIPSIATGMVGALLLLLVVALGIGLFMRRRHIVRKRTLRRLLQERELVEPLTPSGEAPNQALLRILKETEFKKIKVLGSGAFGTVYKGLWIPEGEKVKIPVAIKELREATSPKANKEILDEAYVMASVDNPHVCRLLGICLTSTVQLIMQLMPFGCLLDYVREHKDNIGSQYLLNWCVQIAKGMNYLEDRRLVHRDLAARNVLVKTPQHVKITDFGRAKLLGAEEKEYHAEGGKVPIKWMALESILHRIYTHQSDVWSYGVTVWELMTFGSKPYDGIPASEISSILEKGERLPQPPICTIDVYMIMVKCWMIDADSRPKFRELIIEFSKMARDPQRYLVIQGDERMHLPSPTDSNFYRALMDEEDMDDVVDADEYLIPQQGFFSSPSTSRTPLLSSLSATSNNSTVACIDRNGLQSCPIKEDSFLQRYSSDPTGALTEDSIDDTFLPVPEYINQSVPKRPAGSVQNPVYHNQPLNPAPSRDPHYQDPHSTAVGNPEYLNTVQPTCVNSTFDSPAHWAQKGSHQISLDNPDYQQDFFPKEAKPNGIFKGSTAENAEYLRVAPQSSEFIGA
- applied-conditions: at 0.1 µM
Threshold rule: inhibition greater than or equal to 1% is MET; below that, NOT MET.

Answered examples (3):
| compound | assayed-system | class-name |
| --- | --- | --- |
| COc1ccccc1-c1cc(/C=C2\C(=O)Nc3ncc(Br)cc32)cc(Br)c1O | Epidermal growth factor receptor (Homo sapiens), P00533 [L858R,T790M] | MET |
| COc1ccc(-c2nn3ncccc3c2-c2ccnc(Nc3ccc(F)c(F)c3)n2)cc1 | Epidermal growth factor receptor (Homo sapiens), P00533 [L858R,T790M] | MET |
| CS(=O)(=O)CCNCc1ccc(-c2ccc3ncnc(Nc4ccc(OCc5ccccc5)cc4)c3c2)o1 | Epidermal growth factor receptor (Homo sapiens), P00533 [L858R,T790M] | NOT MET |

Kindly determine if inhibition recorded for CS(=O)(=O)Nc1ccc(-c2cc(-c3ccccc3)cc(C(N)=O)c2N)cc1 is above or exactly 1%.
MET

Kindly determine if inhibition recorded for COc1cc(N2CCN(C(C)C)CC2)ccc1Nc1nc(Nc2cccc(F)c2C(=O)O)c2cc[nH]c2n1 is above or exactly 1%.
MET

Kindly determine if inhibition recorded for CCCNc1cccc(-n2ncc3c(N/N=C/c4ccncc4)ncnc32)c1 is above or exactly 1%.
MET

---

# inhibition values compiled below
- assayed-system: Tyrosine-protein kinase Fyn (Homo sapiens)
- applied-conditions: at 0.1 µM
- Description: GSK_PKIS: FYN mean inhibition at 0.1 uM [Nanosyn]
Report as a plain number; the unit % is understood.

These recorded examples may help you get a feel for the data.
| compound | unit-tag | inhibition |
| --- | --- | --- |
| COc1ccc2ncn(-c3cc(O[C@H](C)c4ccccc4C(F)(F)F)c(C(N)=O)s3)c2c1 | % | 0.53 |
| NC(=O)c1ccc2c(-c3ccnc(NCCCO)n3)c(-c3ccc(F)cc3)nn2c1 | % | 2.14 |
| COc1ccc(-c2nn3ncccc3c2-c2ccnc(Nc3ccc(F)c(F)c3)n2)cc1 | % | 2.85 |
| CCOc1ccc2c(-c3ccnc(Nc4cc(OC)cc(C(F)(F)F)c4)n3)cnn2n1 | % | 3.33 |
| CN(c1ccc(NC(=O)NCCN2CCOCC2)cc1)c1ccnc(Nc2ccc(CS(C)(=O)=O)cc2)n1 | % | 0.52 |
| CC1(C)CC(n2cnc(-c3ccc(F)cc3)c2-c2ccnc(N)n2)CC(C)(C)N1 | % | 1.49 |
| O=C(O[C@H]1CN[C@H](C#Cc2cc3ncnc(Nc4ccc5c(cnn5Cc5ccccc5)c4)c3s2)C1)N1CCOCC1 | % | 1.79 |
| CNC(=O)c1cncc(/C=C/c2ccccc2C)c1 | % | -0.42 |

Reported inhibition for CS(=O)(=O)CCNCc1ccc(-c2ccc3ncnc(Nc4ccc(OCc5cccc(C(F)(F)F)c5)cc4)c3c2)o1 : what is it?
2.75

Reported inhibition for CNC(=O)c1sc(-n2cnc3cc(OC)c(OC)cc32)cc1OCc1ccccc1C(F)(F)F : what is it?
2.51

Reported inhibition for Cc1cc(O)cc(C)c1/C=C/c1cncc(C(N)=O)c1 : what is it?
5.86

Reported inhibition for COc1cccc(-n2ncc3c(N/N=C/c4ccc(C(=O)NCCN(C)C)cc4)ncnc32)c1 : what is it?
48.6

Reported inhibition for Fc1ccc(Nc2nccc(-c3c(-c4ccc(C(F)(F)F)cc4)nn4ncccc34)n2)cc1F : what is it?
0.1

Reported inhibition for FC(F)(F)CNc1nccc(-c2cnn3ncccc23)n1 : what is it?
0.85

Reported inhibition for COc1ccccc1-c1cc(/C=C2\C(=O)Nc3ncc(Br)cc32)cc(Br)c1O : what is it?
5.35

Reported inhibition for Cc1c2ccc(N(C)c3ccnc(Nc4cccc(S(N)(=O)=O)c4)n3)cc2nn1C : what is it?
13.8
